System: NCI/ADR-RES ovarian
Assay: NCI tumour cell line growth inhibition, 48 h; in the data active = GI50 below about 0.43 µM; inactive = the rest
Hi! Could you answer with just one of these? active, inactive

1) Nc1c(C(=O)c2cccc(OCCN3CCOCC3)c2)cnn1-c1ccc(F)cc1 : inactive

Which outcome did this test record for the molecule O=C1c2cccnc2-c2nc(/C=C/c3ccccc3)cc3c2c1nc1ccccc13 ? inactive

What classification did Cc1cc(S(=O)(=O)Nc2nc3ccsc3c(=O)n2Cc2ccco2)c(S)cc1Cl end up with in this test? inactive

Kindly provide the recorded test outcome for the following molecule: O=S(=O)(NC(=S)Nc1ccccc1)c1ccc(N2N=C3c4ccccc4CC3C2c2cccs2)cc1 (stereo not given) inactive

# lookup: test call for N#CC1C(=N)Cc2ccccc2-c2ccccc21 (stereo not given) inactive

Name the outcome recorded for COc1cc2cc(Oc3ccc(NC(=O)Nc4ccccc4)cc3)c(C)nc2cc1OCCN1CCCCC1 in the assay. inactive

Hi, do you know how O=c1cccc(C#Cc2ccccc2)o1 came out in this test? inactive

Dear colleague, could you share the recorded outcome for C=C(CN1CCN(c2cccc(C(F)(F)F)c2)CC1)c1ccc(C(=O)Nc2ccccc2N)cc1 when you have a moment? inactive

Per the records of this test, what outcome belongs to CS(=O)(=O)N1CCN(Cc2cc3nc(-c4cccc5[nH]ncc45)nc(N4CCOCC4)c3s2)CC1 (tested in a mixture with another compound) ? active

For this molecule, state the assay outcome: COc1ccc(-c2cnc(-c3ccc(F)cc3)[nH]2)cc1 inactive

----------
Test system: SR leukemia
Test: NCI tumour cell line growth inhibition, 48 h; in the data active = GI50 below about 0.43 µM; inactive = the rest
Please state which outcome applies, choosing from active, inactive

Illustrative cases are given below, each with its answer.
1. Nc1c(C(=O)c2cccc(OCCN3CCOCC3)c2)cnn1-c1ccc(F)cc1 : inactive
2. CN(C)CCNC(=O)c1cccc2cc3ccccc3nc12 : active
3. C=C(CN1CCN(c2cccc(C(F)(F)F)c2)CC1)c1ccc(C(=O)Nc2ccccc2N)cc1 : active
4. Nc1ccc(C#Cc2cncnc2Nc2ccc(OCc3cccc(F)c3)c(Cl)c2)cc1 : inactive
5. Cc1ccc(N=C2CSc3nnc(-c4csc5c4CCCC5)n3N2)cc1 : active
6. C=C(CNCCc1ccc(O)cc1)[C@@H]1CC[C@]2(CO)CC[C@]3(C)[C@H](CC[C@@H]4[C@@]5(C)CCC(=O)C(C)(C)[C@@H]5CC[C@]43C)[C@@H]12 : inactive
7. COc1cc2c3c(n(CCN)c(=O)c2cc1OC)-c1cc2c(cc1C3=O)OCO2 : inactive
8. Nc1ccn([C@H]2C[C@@H](O)[C@@H](CO)S2)c(=O)n1 : inactive

Lab log entry: COc1ccc(/C=C(/C(=O)N2CCCC2)c2cc(OC)c(OC)c(OC)c2)cc1N — outcome as called in the assay? inactive

Can you look up the reported call for Cc1cc(S(=O)(=O)Nc2nc3ccsc3c(=O)n2Cc2ccco2)c(S)cc1Cl for me? inactive

Fill in: this test's call for COc1cc(NN=C(c2ccc(O)cc2)c2ccc(O)cc2)c([N+](=O)[O-])cc1[N+](=O)[O-] is ___ inactive

// return assay outcome for O=C(Oc1ccc([N+](=O)[O-])cc1)N1CCN(Cc2cccc(Oc3ccccc3)c2)CC1 inactive

----------
System: ACHN renal
Assay: NCI tumour cell line growth inhibition, 48 h; in the data active = GI50 below about 0.43 µM; inactive = the rest
Please answer using one outcome listed in active, inactive

1) COc1cc2c3c(n(CCCN4CCN(C)CC4)c(=O)c2cc1OC)-c1cc2c(cc1C3=O)OCO2 : inactive
2) N#C/C(=C\c1ccc(Br)cc1)n1nnc2cccc(F)c21 : inactive
3) CCC(=O)OC1CCn2c1nc1c2C(=O)C(C)=C(N2CC2)C1=O (configuration not stated) : active
4) O=C([O-])c1ccc2c(c1)-c1nc-2nc2[n-]c(nc3nc(nc4[n-]c(n1)c1ccc(C(=O)[O-])cc41)-c1cc(C(=O)[O-])ccc1-3)c1ccc(C(=O)[O-])cc21.[Fe+2] : inactive
5) O=c1cccc(C#Cc2ccccc2)o1 : inactive

Hey, what did the test say about C=C1C(=O)O[C@H]2[C@H]1CC/C(COC(=O)C(=O)c1c[nH]c3ccc(OC)cc13)=C\CC[C@@]1(C)O[C@@H]21 ? inactive

For this compound, state the assay outcome: O=C1c2ccccc2S(=O)(=O)N1CSC(=S)N1CCCC1 inactive

Hello, I am checking results. What call was entered for CS(=O)(=O)N1CCN(Cc2cc3nc(-c4cccc5[nH]ncc45)nc(N4CCOCC4)c3s2)CC1 (tested in a mixture with another compound) ? active

I'd appreciate the recorded outcome for CC(CN)[C@@H]1CC[C@]2(CO)CC[C@]3(C)[C@H](CC[C@@H]4[C@@]5(C)CCC(NCCO)C(C)(C)[C@@H]5CC[C@]43C)[C@@H]12 (some centres not stated) from this test. inactive

Assay outcome for C=C(CNCCc1ccc(O)cc1)[C@@H]1CC[C@]2(CO)CC[C@]3(C)[C@H](CC[C@@H]4[C@@]5(C)CCC(=O)C(C)(C)[C@@H]5CC[C@]43C)[C@@H]12 : what was it? inactive

Kindly provide the recorded test outcome for the following compound: CCCCCCCCOc1ccc(/C=N/Nc2cc(C)nc3ccc(Cl)cc23)cc1 inactive

// return assay outcome for COc1cc(/C=C/C(=O)c2cc(F)c(Cl)cc2Cl)cc(OC)c1OC inactive

Kindly provide the recorded test outcome for the following compound: COc1ccc(/C=C(/C(=O)N2CCCC2)c2cc(OC)c(OC)c(OC)c2)cc1N inactive

Kindly provide the recorded test outcome for the following compound: Nc1nc2c(c3ncccc13)C(c1cccc(Cl)c1)Cc1ncccc1-2 (configuration not stated) inactive

What call does the record list for Cc1cc(S(=O)(=O)Nc2nc3ccsc3c(=O)n2Cc2ccco2)c(S)cc1Cl ? inactive

Hello, I am checking results. What call was entered for C/C=C(\C)C(=O)O[C@@H]1C(O)[C@H]2OC(COC(=O)CCC(=O)CCCCCC[C@H](CCCCC)O[C@@H]3OC(C)[C@H](OC(C)=O)C(O)[C@H]3O2)[C@H]1OC(=O)/C=C/c1ccccc1 (some centres not stated) ? active

I would be grateful if you could indicate the recorded call for Nc1c(C(=O)c2cccc(OCCN3CCOCC3)c2)cnn1-c1ccc(F)cc1 . inactive
